The reported numbers originate from ChEMBL document CHEMBL3862042.

Target: Phosphatidylinositol 4-kinase type 2-alpha (Homo sapiens)
Sequence (Q9BTU6 whole entry): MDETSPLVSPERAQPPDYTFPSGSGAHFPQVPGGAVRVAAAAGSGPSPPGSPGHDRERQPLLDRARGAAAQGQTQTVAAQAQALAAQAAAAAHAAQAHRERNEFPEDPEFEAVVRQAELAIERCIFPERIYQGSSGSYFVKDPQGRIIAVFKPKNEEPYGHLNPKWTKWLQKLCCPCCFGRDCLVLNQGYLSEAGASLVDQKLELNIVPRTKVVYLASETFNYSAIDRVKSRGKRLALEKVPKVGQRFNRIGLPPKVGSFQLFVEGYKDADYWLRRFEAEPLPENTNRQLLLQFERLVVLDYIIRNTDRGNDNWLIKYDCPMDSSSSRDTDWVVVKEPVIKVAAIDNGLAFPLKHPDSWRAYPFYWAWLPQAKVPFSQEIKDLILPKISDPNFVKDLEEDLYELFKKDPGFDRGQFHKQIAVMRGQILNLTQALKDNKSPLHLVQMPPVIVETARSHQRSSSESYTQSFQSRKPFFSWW
Test: Inhibition of PI4K2A (unknown origin) assessed as remaining enzyme activity by ADP-Glo kinase assay relative to untreated control
measure_name: Activity (%)
A number alone suffices; assume %.

Recorded Activity, per entry:
>>> print(df.to_string())
                                   compound  measure_name  measurement_unit  reported
0  CCc1cc(CNc2cc(Cl)nn3c(-c4ccc(OC)c(S(=O)(=O)NC5CCC(N)CC5)c4)c(C)nc23)ccn1 (stereo not drawn)      Activity                 %       101
1  CCc1cc(CNc2cc(Cl)nn3c(-c4ccc(OC)c(S(=O)(=O)N5CCOCC5)c4)c(C)nc23)ccn1      Activity                 %        97
2  COc1ccc(-c2c(C)nc3c(NCCNC(C)=O)cc(Cl)nn23)cc1S(=O)(=O)n1cccn1      Activity                 %        83
3  CCc1cc(CNc2cc(Cl)nn3c(-c4ccc(OC)c(S(=O)(=O)NCCOC)c4)c(C)nc23)ccn1      Activity                 %       104
4  COc1ccc(-c2c(C)nc3c(NCCNC(C)=O)cc(Cl)nn23)cc1S(=O)(=O)NCCO      Activity                 %       112
5  COc1ccc(-c2c(C)nc3c(NCCNC(C)=O)cc(Cl)nn23)cc1S(=O)(=O)NC1CC1      Activity                 %       108

What Activity value was documented for this compound, COCCNS(=O)(=O)c1cc(-c2c(C)nc3c(NCCNC(C)=O)cc(Cl)nn23)ccc1OC ?
107

Another compound to look at: CCc1cc(CNc2cc(Cl)nn3c(-c4ccc(OC)c(S(=O)(=O)n5cccn5)c4)c(C)nc23)ccn1
112
